src = the supplement of paper PMC4862054

# Tested on: BT-474
# assay.comment: normalised viability (% of control), CellTiter-Blue; higher = more viable cells (about 100 = DMSO control)
# experimental.conditions: 100 nM; incubation time: 72 h
normalised viability overview

// query Which normalised viability reading was recorded for the molecule COc1cc(Nc2ncc3c(n2)-c2ccc(Cl)cc2C(c2c(F)cccc2OC)=NC3)ccc1C(=O)O [MLN8237] ?
// result 72.6%

// query Which normalised viability reading was recorded for the molecule CN1CCC(COc2cnc(-c3cccc(Cn4nc(-c5cccc(C#N)c5)ccc4=O)c3)nc2)CC1 ?
// result 102%

// query Which normalised viability reading was recorded for the molecule Nc1ccn([C@@H]2O[C@H](CO)[C@@H](O)[C@@H]2O)c(=O)n1 [Cytarabine] ?
// result 101%

Continuing:
// query Which normalised viability reading was recorded for the molecule CS(=O)(=O)c1ccc(C(=O)Nc2ccc(Cl)c(-c3ccccn3)c2)c(Cl)c1 [Vismodegib] ?
// result 101%

// query Which normalised viability reading was recorded for the molecule CN1CC[C@H](c2c(O)cc(O)c3c(=O)cc(-c4ccccc4Cl)oc23)[C@H](O)C1 [Alvocidib] ?
// result 96.4%
